# assayTarget: UniProt:B4URF0
# Sequence (B4URF0 whole entry): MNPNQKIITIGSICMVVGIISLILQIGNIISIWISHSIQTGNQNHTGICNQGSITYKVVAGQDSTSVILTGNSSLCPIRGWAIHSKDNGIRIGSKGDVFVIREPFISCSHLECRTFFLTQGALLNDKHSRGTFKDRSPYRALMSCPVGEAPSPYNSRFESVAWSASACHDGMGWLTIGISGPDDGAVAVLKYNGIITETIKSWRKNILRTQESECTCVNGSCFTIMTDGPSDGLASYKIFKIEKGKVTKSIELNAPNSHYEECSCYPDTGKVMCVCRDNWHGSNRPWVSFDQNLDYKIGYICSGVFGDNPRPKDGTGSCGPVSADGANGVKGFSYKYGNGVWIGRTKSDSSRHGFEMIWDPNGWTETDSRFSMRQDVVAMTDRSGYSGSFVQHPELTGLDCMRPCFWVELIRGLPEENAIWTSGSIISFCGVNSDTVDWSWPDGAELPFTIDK
# Set-up: species or system H7N1
metricName: IC50 (nM)
Report the figure in nM without appending any unit label.

>>> numericreadout("C=CC(=O)N[C@@H]1[C@@H](N)CC(C(=O)O)=C[C@H]1OC(CC)CC")
31.8
>>> numericreadout("C/C=C/C(=O)N[C@@H]1[C@@H](N)CC(C(=O)O)=C[C@H]1OC(CC)CC")
139000
>>> numericreadout("CCC(CC)O[C@@H]1C=C(C(=O)O)C[C@H](N=[N+]=[N-])[C@H]1NC(C)=O")
84.4
>>> numericreadout("C=CC(=O)N[C@@H]1[C@@H](NCC(C)C)CC(C(=O)O)=C[C@H]1OC(CC)CC")
14.6

Now look at this one.
IN: Would you mind telling me what IC50 value was observed for C/C=C/C(=O)N[C@@H]1[C@@H](N=[N+]=[N-])CC(C(=O)O)=C[C@H]1OC(CC)CC ?
OUT: 51600
